Target: SULT1E1 (Homo sapiens, UniProt P49888)
Construct: E. coli codon-optimized SULT1E1 coding region inserted into the PreScission Protease cleavage site; His/GST/MBP triple tag (N, cleaved yes); made in house; host or cells: E. coli BL21(DE3)
Sequence (P49888 whole entry): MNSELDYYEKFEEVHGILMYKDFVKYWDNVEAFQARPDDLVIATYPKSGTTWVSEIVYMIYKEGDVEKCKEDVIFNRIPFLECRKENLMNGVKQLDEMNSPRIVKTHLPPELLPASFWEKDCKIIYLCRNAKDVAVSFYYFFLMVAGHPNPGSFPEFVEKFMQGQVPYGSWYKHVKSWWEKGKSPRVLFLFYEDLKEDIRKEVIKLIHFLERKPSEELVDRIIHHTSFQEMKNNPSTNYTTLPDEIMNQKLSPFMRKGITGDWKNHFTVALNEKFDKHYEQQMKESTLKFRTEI
Assay: Equilibrium binding studies (SULT1E1 intrinsic fluorescence)
Settings: free enzyme E; pH 7.4, 25 °C; spread = one SD; read-out: Kd, ligand binding to enzyme species E
attributeMeasured: Kd (nM)
Response body: numeric value in nM, unit text excluded.

Oc1ccc(-c2c(Cl)cccc2Cl)cc1    750

// next item, Kd requested
Look up and state reported Kd for "Oc1c(Cl)cc(-c2ccc(Cl)c(Cl)c2)cc1Cl"
7.2

---

Target: SULT1E1 (Homo sapiens)
Construct: E. coli codon-optimized SULT1E1 coding region inserted into the PreScission Protease cleavage site; His/GST/MBP triple tag (N, cleaved yes); made in house; host or cells: E. coli BL21(DE3)
Assay: Equilibrium binding studies (SULT1E1 intrinsic fluorescence)
Conditions: OH-PCB1 10 μM, PAP 300 μM; pH 7.4, 25 °C; spread = one SD; read-out: Kd, ligand binding to enzyme species E⋅PAP⋅OH-PCB1
attributeMeasured: Kd (pM)
Value expressed in pM; do not type the unit.

Quickly give me recorded Kd for C[C@]12CC[C@@H]3c4ccc(O)cc4CC[C@H]3[C@@H]1CC[C@@H]2O [E2, 17-Beta-estradiol]
980

---

Target: spin-labeled SULT1E1, spin label attached at Cys residue 233 (C69S/N233C) (Homo sapiens, UniProt P49888, C69S/N233C)
Construct: E. coli codon-optimized SULT1E1 coding region inserted into the PreScission Protease cleavage site; His/GST/MBP triple tag (N, cleaved yes)
Sequence (P49888 whole entry C69S/N233C): as the sequence (P49888 whole entry) above, with C69S, N233C counted along it
Assay: Initial-rate studies, spin-labeled construct (label at Cys 233)
Conditions: spin label at Cys 233; parentheses = one SD; read-out: Ki OH-PCB1
attributeMeasured: pKi
Quick note: pKi means taking -log10 of the concentration in moles per liter.

Give a short answer stating reported pKi for Oc1ccc(-c2c(Cl)cccc2Cl)cc1 [OH-PCB1, 4ʹ-OH-2,6-dichlorobiphenol] .
7.24
